# binding score per entry
Target: T1, CaBdf1 BD1 (GST-tagged, wild-type) (Candida albicans (strain SC5314 / ATCC …, UniProt Q5A4W8))
T1 chain: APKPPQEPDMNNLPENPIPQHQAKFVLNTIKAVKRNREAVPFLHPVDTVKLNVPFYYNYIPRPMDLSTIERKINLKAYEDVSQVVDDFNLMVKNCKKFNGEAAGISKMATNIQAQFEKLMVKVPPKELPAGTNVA
Test: histone peptide array (Active Motif MODified), 1 uM GST-tagged bromodomain, anti-GST detection, normalized mean intensity
Square brackets hold non-standard residues; d marks the D form. Ends that are not written are not given here. Arg(Me2a) = CN(C)C(=N)NCCC[C@H](N)C(=O)O; Arg(Me2s) = CN=C(NC)NCCC[C@H](N)C(=O)O; Lys(Me2) = CN(C)CCCC[C@H](N)C(=O)O; pS = N[C@@H](COP(=O)(O)O)C(=O)O; Lys(Me) = CNCCCC[C@H](N)C(=O)O; Me2a = not defined here
Just the number, please.

As a guide, the following entries are already answered.
ARTKQTARKSTGGKAPRKQ (A R T K Q T A Rme2a K S T G G K A P R K Q): 0.00326
ARTKQTARKSTGGKAPRKQ (A R T Kme2 Q T A Rme2s Kac S T G G K A P R K Q): 0.0305
ARTKQTARKSTGGKAPRKQ (A Rme2a T Kme1 Q T A Rme2s Kme2 S T G G K A P R K Q): 0.00218
[pS]GRGKQGGK(Ac)ARAK(Ac)AKSRSS: 0.0642
ARTKQTARKSTGGKAPRKQ (A Rme2s T Kme1 Q T A Rme2s Kac S T G G K A P R K Q): 0.0344
ARTKQTARKSTGGKAPRKQ (A R T K Q T A R Kac S pT G G K A P R K Q): 0.00544
A[Arg(Me2s)]T[Lys(Me)]QTA[Arg(Me2a)][Lys(Me2)]STGGKAPRKQ: 0.00471
AR(Me2s)TK(Me3)QTAR(Me2a)K(Ac)STGGKAPRKQ (reading uncertain): 0.0406

What value of binding score has been recorded for this entry: ARTKQTARKSTGGKAPRKQ (A R T K Q T A Rme2s Kme1 S pT G G K A P R K Q) 0.0029

Entry SGRGKGGKGLGKGGAKRHR (S G R G Kac G G Kac G L G K G G A K R H R) : reported binding score = ? 0.0294

Find the recorded binding score belonging to RKSAPATGGVKKPHRYRPG (R K S A P A T G G V Kme1 K P H R Y R P G) [H3 26-45] and report it. 0.00616

# query: binding score of entry SGRGKGGKGLGKGGAKRHR (S G Rme2s G Kac G G Kac G L G Kac G G A K R H R) 0.175

Report binding score for ARTKQTARKSTGGKAPRKQ (A Rme2s T Kac Q T A Rme2s Kac S T G G K A P R K Q) please. 0.041

// lookup binding score for ARTKQTARKSTGGKAPRKQ (A R T K Q T A R Kme2 S T G G K A P R K Q) 0.00109

Data request, read-out binding score, for ARTKQTARKSTGGKAPRKQ (A R pT Kme2 Q T A R K S T G G K A P R K Q) 0.00326

Please look up its binding score: SGRGK(Ac)QGGK(Ac)ARAKAKSRSS 0.0283
